The measured values listed here are drawn from paper PMC10793102.

test: PK study in rats
Assay type: in vivo
condition_details: male, SD, rat, plasma, iv, 0.5 mg/kg
measured_parameter: AUC(0-inf) (ng·h/mL)
Report the value in ng·h/mL with no unit label.

Qu. Entry `C[C@@H](c1ccc(-n2cnc3c(N)ncnc32)cc1)N1CCc2nn(C)c(Cc3ccccc3)c2C1=O` has what AUC(0-inf)?
Ans. 397

###

test: PK study in rats
Assay type: in vivo
condition_details: SD, rat, plasma, po, 5 mg/kg
measured_parameter: bioavailability (%)
Report the value in % with no unit label.

Qu. Entry C[C@@H](c1ccc(-n2cnc3c(N)ncnc32)cc1)N1CCc2nn(C)c(Cc3ccccc3)c2C1=O [compound 62] has what bioavailability?
Ans. 34.1

###

test: PK study in mice
Assay type: in vivo
condition_details: male, ICR, mouse, plasma, iv, 1 mg/kg
Binary classification by AUC(0-t), with 1 µg·h/mL as an inclusive lower bound for met; all other cases are not met.

Qu. Hello, I need to know if Cn1ncc(C(=O)NCc2ccc(-n3cnc4c(N)ncnc43)cc2)c1Cc1ccccc1 [compound 39] has measured AUC(0-t) not below 1 µg·h/mL. Thanks!
Ans. not met

Qu. Hello, I need to know if Cn1nc(Cl)c(C(=O)NCc2ccc(-n3cnc4c(N)ncnc43)cc2)c1Cc1ccccc1 [compound 48] has measured AUC(0-t) not below 1 µg·h/mL. Thanks!
Ans. met

Qu. Hello, I need to know if C[C@@H](c1ccc(-n2cnc3c(N)ncnc32)cc1)N1Cc2nn(C)c(Cc3ccccc3)c2C1=O [compound 63] has measured AUC(0-t) not below 1 µg·h/mL. Thanks!
Ans. not met

Qu. Hello, I need to know if Cn1nnc(C(=O)NCc2ccc(-n3cnc4c(N)ncnc43)cc2)c1Cc1ccccc1 [compound 49] has measured AUC(0-t) not below 1 µg·h/mL. Thanks!
Ans. met

Qu. Hello, I need to know if C[C@H](NC(=O)c1cnn(C)c1Cc1ccccc1)c1ccc(-n2cnc3c(N)ncnc32)cc1 [compound 54] has measured AUC(0-t) not below 1 µg·h/mL. Thanks!
Ans. not met

###

Would you mind telling me the reported Tmax of each entry?
test: PK study in mice
Type: in vivo
condition_details: male, ICR, mouse, plasma, po, 10 mg/kg
Report the value in min with no unit label.

Qu. Entry Cn1nc(Cl)c(C(=O)NCc2ccc(-n3cnc4c(N)ncnc43)cc2)c1Cc1ccccc1 [compound 48] has what Tmax?
Ans. 25.2

Qu. Entry Cn1ncc(C(=O)NCc2ccc(-n3cnc4c(N)ncnc43)cc2)c1Cc1ccccc1 [compound 39] has what Tmax?
Ans. 19.8

Qu. Entry C[C@H](NC(=O)c1cnn(C)c1Cc1ccccc1)c1ccc(-n2cnc3c(N)ncnc32)cc1 [compound 54] has what Tmax?
Ans. 30

Qu. Entry C[C@@H](c1ccc(-n2cnc3c(N)ncnc32)cc1)N1Cc2nn(C)c(Cc3ccccc3)c2C1=O [compound 63] has what Tmax?
Ans. 40.2

Qu. Entry Cn1nnc(C(=O)NCc2ccc(-n3cnc4c(N)ncnc43)cc2)c1Cc1ccccc1 [compound 49] has what Tmax?
Ans. 40.2

###

Tested on: L929
test: Cell viability assay, protection from necroptosis in L929 cells
Assay type: cell-based, mouse
condition_details: Mus musculus, L929, 16 h, read-out: EC50 L929 T + S
measured_parameter: EC50 (nM)
Report the value in nM with no unit label.

Qu. Entry CN1C(=O)[C@@H](NC(=O)c2n[nH]c(Cc3ccccc3)n2)COc2ccccc21 [compound 2, GSK2982772, reference compound] has what EC50?
Ans. 8280

Qu. Entry `Cn1nc2c(c1Cc1ccccc1)C(=O)N(Cc1ccc(-n3cnc4c(N)ncnc43)cc1)C2` has what EC50?
Ans. 116

Qu. Entry `Nc1ncnc2c1ncn2-c1ccc(CNC(=O)c2ccc(F)n2Cc2ccccc2)cc1` has what EC50?
Ans. 74

Qu. Entry `CNC(=O)c1ccc2c(c1)ncn2-c1ccc(CNC(=O)c2ncc(Cc3ccccc3)o2)cc1` has what EC50?
Ans. 3980

Qu. Entry `Cn1ncc(C(=O)NCc2ccc(-n3cnc4c(N)nccc43)cc2)c1Cc1ccccc1` has what EC50?
Ans. 6.3

Qu. Entry `Cn1ncc(C(=O)NCc2ccc(-n3ccc4c(N)ncnc43)cc2)c1Cc1ccccc1` has what EC50?
Ans. 0.9

Qu. Entry `Cn1nnc(C(=O)NCc2ccc(-n3cnc4c(N)ncnc43)cc2)c1Cc1ccccc1` has what EC50?
Ans. 0.06
